assay explanation: Plasma pharmacokinetics after intravenous injection
Assay type: in vivo, mouse
test settings: mouse, plasma, female Swiss nude mice, 2 nmol/animal
measure name: half-life (h)
# number only, unit h dropped from output

Name the recorded half-life for CC[N+]1=C(/C=C/C=C/C=C2/N(CCCCCC(=O)NCc3ccc4c(c3)Cc3cc(OCCCNc5cc(C)ccn5)ccc3CC4CC(=O)O)c3ccc4c(S(=O)(=O)O)cc(S(=O)(=O)O)cc4c3C2(C)C)C(C)(C)c2c1ccc1c(S(=O)(=O)O)cc(S(=O)(=O)O)cc21 (stereo not shown) . 15
